What apparent KD of K4 kissing-loop reporter was measured for each of the following?
Tested on: K4 kissing-loop RNA reporter;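 note: bound reporter read as fluorescence of individual clusters on recovered sequencing chips by microscopy, with normalized cluster intensities fitted with a binding model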
Test: apparent KD of K4 kissing-loop reporter; higher = weaker reporter binding
Conditions: Eterna round: R107; input ligand: FMN 200 uM
Number first, unit second: that is the form wanted.

Dear colleague, I am looking for the recorded apparent KD of K4 kissing-loop reporter of the following sequence: UGUAUGUGAUUUGAUACCAGACCAGCUGGUGGUAUAUGAGUGAUGUUCAUGUUGGUUUGGGUCCCUUGGCAGCAAAUCGCAUACU [KL-SSTheoB10]
271 nM

Dear colleague, I am looking for the recorded apparent KD of K4 kissing-loop reporter of the following sequence: `GUUUGGCUCCGAAGACGGCAGUGGGAAAUAUAGGAUAUCUAGAAAUAGAGAAGGAUACUAGUGAUGUUAGUAUCGGAUAAAACAA`
85.9 nM

Dear colleague, I am looking for the recorded apparent KD of K4 kissing-loop reporter of the following sequence: GGGAAGAAGGCGGCCGCCACUGCAGAAGAGACAGAGAGAGAAGAAGAGGAGUGAUGUUCCAAGAACAGGACCGGGCCAAGAAGGG [whbob_SS_Tryp_B_t28]
167 nM

Dear colleague, I am looking for the recorded apparent KD of K4 kissing-loop reporter of the following sequence: UUGUUUCCGACGGCCGCCACUGGUUUCUUUGUUGUAGUGAUGUUGCGGUGGAAUGAUAGCGUUAACAGGACCGGGUCGGUGAGAC [theeternabot_sameState_KL_Trp_B_42]
1280 nM

Dear colleague, I am looking for the recorded apparent KD of K4 kissing-loop reporter of the following sequence: GAUUAUUAUUCUAAAUAACAUUAUUCAGAAGGAGCGUGUUUGUACACAGGUAGGUCGCUGAAUGCUAAGCCAGUGAUGUUGGUAA [JR_SSArginiA_Sub001]
154 nM

Dear colleague, I am looking for the recorded apparent KD of K4 kissing-loop reporter of the following sequence: UGACUGGACUGAAGGAGCGAGCGAGACAAAGUCUCGAAAUCCUAGUGAUGUUAGGAAAUAACUCAGGUAGGUCGCAGUCUAGUCU [ArgBS 9 #SwitchBubble #StaticStem]
181 nM

----------
What apparent KD of MS2 coat protein was measured for each of the following?
Test system: MS2 coat protein
Experiment: apparent KD of MS2 coat protein; designed switch direction (-1 OFF switch, 1 ON switch): -1; higher = weaker reporter binding
Conditions: Eterna round: R95; input ligand: microRNA oligo, concentration not stated

Dear colleague, I am looking for the recorded apparent KD of MS2 coat protein of the following sequence: AAGAAACAUGAGGAUCACCCAUGUGAGGAUAUGACGAAGAAAAGAAAAGAAAGAAGAUUCAGAAGGCACAAAGG [salish99-ex1_r3_061] (puzzle: Exclusion 1)
42.9 nM

Dear colleague, I am looking for the recorded apparent KD of MS2 coat protein of the following sequence: GAGGAACAUGAGGAUCACCCAUGUGAGGAUAUGCAUAGUGAGGUAGUAGAAGUUGAAUGCAGAAGGUACACUGA [JR_Exclu1_Sub077] (puzzle: Exclusion 1)
39 nM

Dear colleague, I am looking for the recorded apparent KD of MS2 coat protein of the following sequence: GCUUCCCAUGUGAGGAUAUGUAGGGUUAACCCGAGGCAGAAGGCACAUGAGGAUCACCCAUGUUAAAACUUCUA [Xecera] (puzzle: Brourd's mod of Exclusion 4)
30.8 nM

Dear colleague, I am looking for the recorded apparent KD of MS2 coat protein of the following sequence: UUAUACGGUGAGGAUAUCUUCACUAAAGUGUGAAGAGAAGGCGCUACAUGAGGAUCACCCAUGUCUAUGGGCAG [Ex-6 Malc#17] (puzzle: Exclusion 6)
187 nM

Dear colleague, I am looking for the recorded apparent KD of MS2 coat protein of the following sequence: CUCUUGUCAGGAUAUUAUGGACGAAGGCAGGGCCGCGUCAGUGAGAAGGGACAUGAGGAUCACCCAUGUAAAAU [Riintesoa] (puzzle: Exclusion 4)
73.9 nM

Dear colleague, I am looking for the recorded apparent KD of MS2 coat protein of the following sequence: CUUUUGUGAGGAUAUCAGUAGUAAAUAAAUAAAAUUACUACUGAGAAGGCACAUGAGGAUCACCCAUGUUCCUC [salish99_ex4_r3_015] (puzzle: Exclusion 4)
37.4 nM

Dear colleague, I am looking for the recorded apparent KD of MS2 coat protein of the following sequence: AGUACUAACACGAAAGUGUUAGUACAAUAAGCUUGUAUUACAUGAGGAUCACCCAUGUCCUCAUAAGCUCGUCUUAU [Mat - Sensor v3 - Turn-off var 2 - D46] (puzzle: Sensor v3, turn-off variant 2)
14 nM

Dear colleague, I am looking for the recorded apparent KD of MS2 coat protein of the following sequence: UUUAAUUUUUUUUUUUUACAAGCUUUUUGCUCGUCUUAUACAUGAGGAUCACCCAUGUAGGUGGAGGGUAAAUUAUC [JMF 90] (puzzle: Sensor v3, turn-off variant 2)
44.1 nM

Dear colleague, I am looking for the recorded apparent KD of MS2 coat protein of the following sequence: AAGAAACAUGAGGAUCACCCAUGUGAGGAUAUGAAAAAGAAAAGAAAAGAAAGAAGAAUCAGAAGGCACAAAGG [salish99-ex1_r3_019] (puzzle: Exclusion 1)
30.7 nM

Dear colleague, I am looking for the recorded apparent KD of MS2 coat protein of the following sequence: AGAUGGCGAGGAUAUACAUGAGGAUCACCCAUGUGAGAAGAUAAAGUGAGGAAGAAAAGUAGAAGGCGCUGUCA [Mat - Exclusion 3 - Mod of Salish D23] (puzzle: Exclusion 3)
44.9 nM

Dear colleague, I am looking for the recorded apparent KD of MS2 coat protein of the following sequence: AAACCACAUGAGGAUCACCCAUGUGAGGAUAUGAUACUAUGUACUUCGGUACAUAGUAUCAGAAGGCAUGUGGA [Ex1-3: 88] (puzzle: Exclusion 1)
168 nM

Dear colleague, I am looking for the recorded apparent KD of MS2 coat protein of the following sequence: UUGUGCAAAGGAUAUACGUCCGACCUCGUGGAACUGAGAAUACAUGAGGAUCACCCAUGUAGAAGGUUGCCGAG [Racereus] (puzzle: Exclusion 2)
10.5 nM

Dear colleague, I am looking for the recorded apparent KD of MS2 coat protein of the following sequence: GGGCGGCGGACCGUGGCUUUUUGCUCGUCUUAUGCUUCGACAUGAGGAUCACCCAUGUGGUGGUGGUCCGUUGUGGG [Grok-var2-13 mod JAL] (puzzle: Sensor v3, turn-off variant 2)
15.5 nM

Dear colleague, I am looking for the recorded apparent KD of MS2 coat protein of the following sequence: AGGGAACGAGGAUAUCGAUGGUGGAACAUGAGGAUCACCCAUGUAUGAGAUAGAGUAGGGCGAGAAGGCGUUAAGA [JR_E5_Sub051] (puzzle: Exclusion 5)
55.6 nM

Dear colleague, I am looking for the recorded apparent KD of MS2 coat protein of the following sequence: GUAGAGUAAGGAUAUCAAGAAUAGGAUAGAAUGGUUAGAAUUGAGAAGGUACAUGAGGAUCACCCAUGUAAUGU [Excluse me!!!! 4 - Jieux - Exclusion 4] (puzzle: Exclusion 4)
24.1 nM

Dear colleague, I am looking for the recorded apparent KD of MS2 coat protein of the following sequence: UUUUAACAUGAGGAUCACCCAUGUGAGGAUAUCGAAAUUUAUAUUAAUAUUUUUAAUACGAGAAGGCACAUUUU [JMF 70] (puzzle: Exclusion 1)
49.6 nM

Dear colleague, I am looking for the recorded apparent KD of MS2 coat protein of the following sequence: GGAAGUAGAAACCGAUCCUACAUGAGGAUCACCCAUGUAGCAAGACGUGCACGCGAAGCUCGUCAGACUACCAGAAU [salish99_TOv1_r3_010] (puzzle: Sensor v3, turn-off variant 1)
268 nM

Dear colleague, I am looking for the recorded apparent KD of MS2 coat protein of the following sequence: UCGGCGCGAGGAUAUACGUUUGCGCGUUUUCGUUUGCGCGUACAUGAGGAUCACCCAUGUAGAAGGCGCGCCGC [Apr-15 SS2-14] (puzzle: Exclusion 2)
13.2 nM

Dear colleague, I am looking for the recorded apparent KD of MS2 coat protein of the following sequence: CCAGGCAGUGUGAGGAUAUGCUGGUGCUUGCAUCAGCAGAAGGCACAUGAGGAUCACCCAUGUGAAGAGCUUGG [Mat - Exclusion 4 - JL Mod - D97] (puzzle: Brourd's mod of Exclusion 4)
21.1 nM

Dear colleague, I am looking for the recorded apparent KD of MS2 coat protein of the following sequence: AAUCCACAUGAGGAUCACCCAUGUGAGGAUAUGAUACUAUGUACUUCGGUACAUAGUAUCAGAAGGCACAAAGG [Ex1-3: 52] (puzzle: Exclusion 1)
56 nM

Dear colleague, I am looking for the recorded apparent KD of MS2 coat protein of the following sequence: GCAUGCUAUGUCAGGAUAUACCUCUGGAUACAUAGGUAGAAGGGACAUGAGGAUCACCCAUGUCCUCAUCAUGC [Fiskers BMX 4 - 25] (puzzle: Brourd's mod of Exclusion 4)
13.5 nM
